# ASSAY OVERVIEW: soluble on expression in E. coli; label from the status in PepcDB or PDB records
TEST READOUT: soluble on expression in E. coli

1) MGSDKIHHHHHHMKVFITGGTGFVGSAVVQELVANGFEVVGLARSETSAQKLISWGAQPVRGSLTSLSTLATAAAQADAIIHLGFNNDFRHFFQAGAMDRRAIETMGRAISGTNKPLVVTYGTTGIRKHVETEHEVADTGLLKWLTPRKSEIVARQLMAQNINAFVVRLSPAVHGAGDMGFTRTVIERAKKSHRAEYFGLGTHAWSAVHRLDAAHLFYLVTMYGLEHPTTNERVFNAVAEESITIAAIARTISRKLNVPLKAKYNPLSFGDTAMLYLINCPTSSQLTRQILGWVPVQPDLLTDISSSRY : not soluble
2) MKIIARDRGTGKTTELVKESARTGQYILASNKSHVRAIEQIAKKAGVTIPYPVTVDEIVSMDRFTCASSIQRDGLLVDEAIMVLSKLIGLKITGATISLEGEQQC : not soluble

Numbers sourced from the DeepSol protein solubility set.
